Target: panel of 442 kinases (Homo sapiens)
Construct: purchased KINOMEscan
Sequence (Q9H2G2 whole entry): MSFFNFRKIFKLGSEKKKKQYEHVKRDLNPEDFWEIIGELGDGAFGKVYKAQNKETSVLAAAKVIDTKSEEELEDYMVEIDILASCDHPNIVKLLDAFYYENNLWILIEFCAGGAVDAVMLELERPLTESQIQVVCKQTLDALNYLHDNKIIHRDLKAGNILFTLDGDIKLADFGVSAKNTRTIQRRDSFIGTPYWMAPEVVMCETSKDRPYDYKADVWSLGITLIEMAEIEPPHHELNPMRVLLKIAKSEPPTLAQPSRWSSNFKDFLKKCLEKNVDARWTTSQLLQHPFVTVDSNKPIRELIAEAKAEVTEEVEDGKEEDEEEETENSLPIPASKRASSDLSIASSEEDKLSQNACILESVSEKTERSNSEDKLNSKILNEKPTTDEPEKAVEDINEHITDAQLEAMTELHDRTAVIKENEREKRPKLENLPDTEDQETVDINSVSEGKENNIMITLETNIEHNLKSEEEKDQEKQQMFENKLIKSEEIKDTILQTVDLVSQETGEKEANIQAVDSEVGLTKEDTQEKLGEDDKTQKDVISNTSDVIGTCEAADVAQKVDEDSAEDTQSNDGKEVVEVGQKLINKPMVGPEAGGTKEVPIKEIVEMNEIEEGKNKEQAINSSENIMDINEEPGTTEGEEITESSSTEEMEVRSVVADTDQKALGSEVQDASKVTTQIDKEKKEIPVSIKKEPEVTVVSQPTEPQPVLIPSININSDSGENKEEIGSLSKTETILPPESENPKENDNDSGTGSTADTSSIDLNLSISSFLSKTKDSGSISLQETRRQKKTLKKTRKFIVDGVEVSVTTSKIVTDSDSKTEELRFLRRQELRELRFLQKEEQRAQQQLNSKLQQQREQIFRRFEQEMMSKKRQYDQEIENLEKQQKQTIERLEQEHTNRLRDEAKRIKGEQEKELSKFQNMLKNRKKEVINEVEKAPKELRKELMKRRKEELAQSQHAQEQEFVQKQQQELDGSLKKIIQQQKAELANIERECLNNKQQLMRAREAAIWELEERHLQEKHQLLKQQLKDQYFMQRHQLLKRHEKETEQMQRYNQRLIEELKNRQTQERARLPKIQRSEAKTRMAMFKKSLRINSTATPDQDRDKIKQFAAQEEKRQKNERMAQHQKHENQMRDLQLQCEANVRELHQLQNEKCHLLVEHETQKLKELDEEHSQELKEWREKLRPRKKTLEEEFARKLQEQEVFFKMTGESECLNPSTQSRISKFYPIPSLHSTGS
Assay type: binding
Details: kinase SLK; compound concentration 10 µM
For each record, write down the corresponding % Ctrl, SLK.
# unit: % Ctrl | format: bare number

input: Param request: % Ctrl, SLK | system panel of 442 kinases (Homo sapiens) | item "COc1cc(C(=O)N2CCC(N3CCN(C)CC3)CC2)ccc1Nc1ncc2c(n1)N1CCc3cccc(c31)C(=O)N2C"
output: 49

input: Param request: % Ctrl, SLK | system panel of 442 kinases (Homo sapiens) | item "COc1cc(C(=O)N2CCC(N3CCN(C)CC3)CC2)ccc1Nc1ncc2c(n1)N(C)c1ccccc1C(=O)N2C"
output: 100

input: Param request: % Ctrl, SLK | system panel of 442 kinases (Homo sapiens) | item "CCOc1cc(C(=O)N2CCC(N3CCN(C)CC3)CC2)ccc1Nc1ncc2c(n1)N(C1CCCC1)c1ccccc1C(=O)N2C"
output: 100

input: Param request: % Ctrl, SLK | system panel of 442 kinases (Homo sapiens) | item "COc1cc(C(=O)N2CCC(N3CCN(C)CC3)CC2)ccc1Nc1ncc2c(n1)N(C1CCCC1)c1ccccc1C(=O)N2C"
output: 100
